Target chain: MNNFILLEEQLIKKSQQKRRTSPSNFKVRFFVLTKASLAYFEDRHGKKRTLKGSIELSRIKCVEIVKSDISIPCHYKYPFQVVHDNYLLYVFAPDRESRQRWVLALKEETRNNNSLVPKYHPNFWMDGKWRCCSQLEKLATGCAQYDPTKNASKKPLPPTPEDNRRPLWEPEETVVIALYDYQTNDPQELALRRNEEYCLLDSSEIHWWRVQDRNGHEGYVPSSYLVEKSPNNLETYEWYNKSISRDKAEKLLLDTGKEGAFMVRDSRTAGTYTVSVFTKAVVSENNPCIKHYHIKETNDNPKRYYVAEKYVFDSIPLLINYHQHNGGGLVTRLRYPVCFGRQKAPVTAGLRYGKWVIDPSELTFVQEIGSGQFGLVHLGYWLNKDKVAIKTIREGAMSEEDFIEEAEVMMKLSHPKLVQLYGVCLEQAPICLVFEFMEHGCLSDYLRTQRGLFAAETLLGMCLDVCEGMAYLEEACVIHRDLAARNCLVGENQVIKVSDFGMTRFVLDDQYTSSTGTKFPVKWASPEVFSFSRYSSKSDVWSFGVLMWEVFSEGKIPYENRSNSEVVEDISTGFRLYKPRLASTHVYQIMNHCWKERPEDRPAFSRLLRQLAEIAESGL
pKi: −log10 of the molar value.
Please go through the items and note down their pKi.

# Molecule, Value
rows = [
    ("Cc1ccccc1-c1cnc2c(-c3ccccn3)c(N)nn2c1", "5.30 to 6.30"),
]

For each of the items listed, what is its pKi?
1. COCCCNC(=O)c1cccc(-c2cnc3c(-c4ccccn4)c(N)nn3c2)n1
2. CN(C)CCNc1ccc(-c2cnc3c(-c4ccccn4)c(N)nn3c2)cn1
3. CNC(=O)c1cnc2c(-c3ccccn3)c(N)nn2c1

Ans.
["5.30 to 6.30", "> 6.30", "5.30 to 6.30"]

Could I get pKi for every one of these entries?
1. Nc1nn2cc(-c3cccc(C(=O)N4CCCC(O)C4)n3)cnc2c1-c1ccccn1 (stereo not drawn)
2. CCN(CC)c1cc(-c2c(N)nn3cc(-c4ccncc4)cnc23)ncn1
3. C[C@@H](CO)NCCCc1cnc2c(-c3ccccn3)c(N)nn2c1
4. Nc1nn2cc(CCCNC3CC3)cnc2c1-c1ccccn1

Ans.
["5.30 to 6.30", "> 6.30", "5.30 to 6.30", "5.30 to 6.30"]

Qu. Consider the molecule shown here: `Nc1nn2cc(-c3ccc(CO)cc3)cnc2c1-c1ccccn1` What is its recorded pKi?
Ans. > 6.30

---

Target: c-Met (Homo sapiens, UniProt P08581)
Sequence (P08581 25-1390): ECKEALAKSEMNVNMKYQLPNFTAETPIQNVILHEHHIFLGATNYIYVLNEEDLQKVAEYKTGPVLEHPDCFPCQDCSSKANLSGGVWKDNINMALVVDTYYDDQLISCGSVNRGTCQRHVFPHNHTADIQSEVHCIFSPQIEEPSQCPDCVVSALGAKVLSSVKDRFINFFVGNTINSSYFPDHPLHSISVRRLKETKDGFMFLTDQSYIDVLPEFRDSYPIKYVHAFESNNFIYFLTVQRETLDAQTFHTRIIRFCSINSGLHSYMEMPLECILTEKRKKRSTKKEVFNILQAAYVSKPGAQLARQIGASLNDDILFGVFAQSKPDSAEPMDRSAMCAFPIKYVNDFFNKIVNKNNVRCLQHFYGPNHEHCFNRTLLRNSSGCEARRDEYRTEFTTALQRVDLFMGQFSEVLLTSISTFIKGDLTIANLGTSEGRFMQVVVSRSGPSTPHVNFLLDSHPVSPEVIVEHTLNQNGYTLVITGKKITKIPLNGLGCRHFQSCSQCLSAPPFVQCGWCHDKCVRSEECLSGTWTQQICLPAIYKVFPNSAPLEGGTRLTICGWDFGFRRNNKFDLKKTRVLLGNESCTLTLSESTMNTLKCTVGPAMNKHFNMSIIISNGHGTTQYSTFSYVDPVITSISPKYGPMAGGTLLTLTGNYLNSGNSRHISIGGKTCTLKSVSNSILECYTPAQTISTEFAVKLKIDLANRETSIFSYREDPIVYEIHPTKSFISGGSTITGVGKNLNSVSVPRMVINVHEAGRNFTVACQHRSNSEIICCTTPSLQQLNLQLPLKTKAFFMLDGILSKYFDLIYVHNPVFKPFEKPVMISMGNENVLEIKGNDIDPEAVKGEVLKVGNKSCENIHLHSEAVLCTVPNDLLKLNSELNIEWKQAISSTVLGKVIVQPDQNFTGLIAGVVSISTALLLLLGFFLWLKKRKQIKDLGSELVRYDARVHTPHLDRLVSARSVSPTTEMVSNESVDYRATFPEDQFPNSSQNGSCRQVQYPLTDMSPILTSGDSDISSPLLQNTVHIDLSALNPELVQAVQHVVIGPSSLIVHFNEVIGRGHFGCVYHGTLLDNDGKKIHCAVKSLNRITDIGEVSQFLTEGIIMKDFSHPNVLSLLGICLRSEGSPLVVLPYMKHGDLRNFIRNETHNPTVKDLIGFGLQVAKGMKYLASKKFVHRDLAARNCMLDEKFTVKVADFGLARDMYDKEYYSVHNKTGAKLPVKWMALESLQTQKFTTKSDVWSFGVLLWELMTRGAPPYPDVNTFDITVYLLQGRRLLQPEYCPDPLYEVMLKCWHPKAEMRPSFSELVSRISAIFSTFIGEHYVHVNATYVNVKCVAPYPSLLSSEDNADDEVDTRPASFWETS
Assay metric: Ki

Record excerpt, results attached:
# Compound, Assay metric, Value
measured = [
    ("Nc1nn2cc(-c3cccnc3N3CCOCC3)cnc2c1-c1ccccn1", "Ki", "500 to 5000 nM"),
    ("Nc1nn2cc(CCCN3CCCC3)cnc2c1-c1ccccn1", "Ki", "< 500 nM"),
    ("CC(C)CN(C)c1ccc(-c2cnc3c(-c4ccccn4)c(N)nn3c2)cn1", "Ki", "500 to 5000 nM"),
    ("COc1ccncc1-c1cnc2c(-c3ccccn3)c(N)nn2c1", "Ki", "< 500 nM"),
    ("Nc1nn2cc(-c3ccc(C(=O)N4CCC(N)CC4)cn3)cnc2c1-c1ccccn1", "Ki", "< 500 nM"),
]

Hi, could you look up Ki for each item in my list?
1. NC1NN2C=C(c3cccc(CN4CCCNCC4)c3)C=NC2=C1c1ccccn1 (stereo not drawn)
2. Nc1nn2cc(-c3ccc(C(=O)N4CCSCC4)cn3)cnc2c1-c1ccccn1
3. Nc1nn2cc(CCCNC3CCCCC3)cnc2c1-c1ccccn1
4. Cc1cnc2c(-c3cc(NCc4cc(Cl)ccc4Cl)ncn3)c(N)nn2c1
5. CCOC(=O)C1CCCN(c2ccc(-c3cnc4c(-c5ccccn5)c(N)nn4c3)cn2)C1 (stereo not drawn)
6. Nc1nn2cc(-c3ccc(CN4CC[C@@H](N)C4)cc3)cnc2c1-c1ccccn1
7. CCN(CC)C(=O)c1cccc(-c2cnc3c(-c4ccccn4)c(N)nn3c2)n1

Ans.
1. < 500 nM
2. < 500 nM
3. 500 to 5000 nM
4. 500 to 5000 nM
5. < 500 nM
6. < 500 nM
7. < 500 nM
